Test system: SF-295 CNS
Experiment: NCI tumour cell line growth inhibition, 48 h
quantity measured: log10 TGI (log10 of the value in µM)

# compound, recorded number
rows = [
    ("O/N=C1/C(=C/c2ccc(Cl)cc2)CCCC1C(NO)c1ccc(Cl)cc1 (configuration not stated)", 1.56),
    ("O=C1/C(=C/c2ccc(C(F)(F)F)cc2)COc2ccc(O)cc21", 1.40),
    ("C=C1C(=O)O[C@H]2[C@H]1CC/C(COC(=O)NCc1cccc(OC)c1)=C\\CC[C@@]1(C)O[C@@H]21", 1.34),
    ("O=C1C(Cl)=C(Nc2ccc3c(c2NC2=C(Cl)C(=O)c4ccccc4C2=O)C(=O)c2ccccc2C3=O)C(=O)c2ccccc21", 0.51),
    ("ClC1=C(Cl)C(Cl)=C(Cl)C1=Cc1ccc(Cl)cc1Cl", 0.49),
]

---

Tested on: K-562 leukemia
Assay: NCI tumour cell line growth inhibition, 48 h
Returns yes if the recorded TGI is greater than or equal to 40 µM, and no otherwise.

# molecule, classification
measured = [
    ("CCN1CCC(O)(c2ccc(Cl)c(Cl)c2)C(C(=O)c2ccc(Cl)c(Cl)c2)C1 (configuration not stated)", "no"),
    ("Nc1nc(SCc2ccccc2[N+](=O)[O-])c2[nH]cnc2n1", "yes"),
    ("CN1CCN(CCCCNc2cc3c4ccccc4c(NCCCCN4CCN(C)CC4)cc3c3ccccc23)CC1", "no"),
    ("OCCCCC#Cc1ccccc1C#Cc1cccs1", "yes"),
    ("CCc1ccccc1NC(=O)C1=C(C)NC(C)=C(C(=O)Nc2ccccc2CC)C1c1ccc(NC(C)=O)cc1", "yes"),
    ("Cc1ccc(-c2nc3n(c2/C=N\\N=C(N)N)CCS3)cc1", "yes"),
    ("CCCCCC/C=C\\CCCCCCCCCc1c(O)c(OC)cc(O)c1CN(C)C", "no"),
    ("CN(C)Cc1cc(C(=O)/C=C/c2c(F)cccc2Cl)cc(CN(C)C)c1O", "no"),
    ("O=C(Nn1c2c(sc1=NC1CC1)C(=O)c1ccccc1C2=O)c1cc2ccc1CCc1ccc(cc1)CC2", "yes"),
    ("CC[S+](C)c1ccc(-c2c3nc(c(-c4ccc([S+](C)CC)cc4)c4ccc([nH]4)c(-c4ccc([S+](C)CC)cc4)c4nc(c(-c5ccc([S+](C)CC)cc5)c5ccc2[nH]5)C=C4)C=C3)cc1 (configuration not stated)", "yes"),
]

---

Tested on: NCI-H226 lung
Test: NCI tumour cell line growth inhibition, 48 h
Recorded TGI values for a group of compounds are listed next.

# compound, system name, TGI
records = [
    ("CN(C(=O)C1CC1)C1C2CN3CCC(O2)C13 (stereo not given)", "NCI-H226 lung", "> 100 µM"),
    ("NC(=O)N/N=C1/CCCC/C1=C\\c1ccccc1", "NCI-H226 lung", "> 100 µM"),
    ("CCOC(=O)CCc1c(C)c2c(O)cc(O)cc2oc1=O", "NCI-H226 lung", "> 100 µM"),
    ("CCOC(=O)C1CCCC1S(=O)(=O)c1ccc(C)cc1 (stereo not given)", "NCI-H226 lung", "> 100 µM"),
    ("Cc1cc(Cl)ccc1Nc1nc(C(F)(F)F)ccc1C(=O)N/N=C/c1ccc(N(C)C)cc1", "NCI-H226 lung", "> 100 µM"),
]

---

Test system: NCI-H226 lung
Assay: NCI tumour cell line growth inhibition, 48 h
Recorded TGI values for a group of compounds are listed next.
quantity measured: TGI (µM)

# compound, system name, quantity measured, op, recorded number
measured = [
    ("CC(C)(C)n1cc(-c2ccnc(NCCCNS(=O)(=O)c3ccc(Cl)cc3)c2)c(-c2cccc(O)c2)n1", "NCI-H226 lung", "TGI", "=", 5.04),
    ("CN(C)CCN1C(=O)c2cccc3c(-c4ccc5ncn(C6CCCCC6)c5c4)ccc(c23)C1=O", "NCI-H226 lung", "TGI", "=", 7.78),
    ("CCOC(=O)c1ccc2c(=O)n3c(C(=O)OCC)ccc3c(=O)n12", "NCI-H226 lung", "TGI", ">", 100),
    ("c1cc(-c2cnn3nc(N4CCOCC4)ccc23)nc(NC2CC2)n1", "NCI-H226 lung", "TGI", ">", 25),
    ("O=C(O)C1Cc2ccccc2OC1=O (stereo not given)", "NCI-H226 lung", "TGI", ">", 100),
]

---

Recorded TGI values for a group of compounds are listed next.
Tested on: MDA-MB-231 breast
Experiment: NCI tumour cell line growth inhibition, 48 h
quantity measured: TGI

# compound, system name, result
rows = [
    ("O=C(/C=C/c1ccsc1)c1ccc(Cl)s1", "MDA-MB-231 breast", "> 100 µM"),
    ("Cc1ccc2oc(=O)cc(C3c4ccc([nH]4)C(c4cc(=O)oc5ccc(C)cc45)c4ccc([nH]4)C(c4cc(=O)oc5ccc(C)cc45)c4ccc([nH]4)C(c4cc(=O)oc5ccc(C)cc45)c4ccc3[nH]4)c2c1 (configuration not stated)", "MDA-MB-231 breast", "0.818 µM"),
    ("CCOC(=O)c1[nH]n(-c2ccccc2)c(=O)c1C=NC(=S)C(N)=S", "MDA-MB-231 breast", "> 100 µM"),
    ("CCCCCCCCCCCCCCCCCCNC(=S)/N=C/c1c(O)cc(C)oc1=O", "MDA-MB-231 breast", "> 100 µM"),
    ("Cc1noc(C)c1N=Nc1ccc2nonc2c1N", "MDA-MB-231 breast", "> 100 µM"),
    ("O=C(Nc1ccc([N+](=O)[O-])cc1)c1cc2ccccc2cc1O", "MDA-MB-231 breast", "1.89 µM"),
    ("Cn1c2cc(Cl)ccc2c2ccc3c(c21)C(=O)C=CC3=O", "MDA-MB-231 breast", "> 68.6 µM"),
    ("C/C=C/COc1cc(NC(=S)c2ccoc2C)ccc1OC", "MDA-MB-231 breast", "> 100 µM"),
    ("COc1cc(/C=N/O)nc(-c2ccccn2)c1", "MDA-MB-231 breast", "> 100 µM"),
    ("c1ccc([P+](CCC[P+](c2ccccc2)(c2ccccc2)c2ccccc2)(c2ccccc2)c2ccccc2)cc1", "MDA-MB-231 breast", "> 100 µM"),
    ("O=C(Nn1c2c(sc1=NC1CC1)C(=O)c1ccccc1C2=O)c1cc2ccc1CCc1ccc(cc1)CC2", "MDA-MB-231 breast", "9.82 µM"),
    ("CC(Nc1cc(=O)n(C)c(=O)[nH]1)c1ccccc1 (configuration not stated)", "MDA-MB-231 breast", "> 100 µM"),
    ("CC1(C)CC(=O)C2=C(C1)N(c1ccccc1)C1(O)C=CC(=O)C3=C(O)c4ccccc4C(=O)C321 (configuration not stated)", "MDA-MB-231 breast", "> 100 µM"),
    ("CCOC(=S)SC/C(=N\\OC(C)(C)OC)c1ccccc1", "MDA-MB-231 breast", "> 100 µM"),
    ("CC1(C)C(C(=O)OC(C#N)c2cccc(OCC(=O)OCc3ccccc3)c2)C1(C)C (configuration not stated)", "MDA-MB-231 breast", "> 100 µM"),
    ("O=C(O)CCc1nc(-c2ccccc2)c(-c2ccccc2)o1", "MDA-MB-231 breast", "> 100 µM"),
    ("NCCCn1c2c(c3ccc([N+](=O)[O-])cc3c1=O)C(=O)c1cc(Cl)ccc1-2", "MDA-MB-231 breast", "0.64 µM"),
]

---

Tested on: HOP-62 NSCLC
Test: NCI tumour cell line growth inhibition, 48 h
quantity measured: TGI

# compound, system name, quantity measured, result
measured = [
    ("CCC(C)c1cnc(CC(C)C)c(=O)[nH]1 (stereo not given)", "HOP-62 NSCLC", "TGI", "> 100 µM"),
    ("Oc1cccc2nc3cc(CN4CCOCC4)c(CN4CCOCC4)cc3nc12", "HOP-62 NSCLC", "TGI", "> 100 µM"),
    ("CO[C@H]1/C=C/C[C@H](C)[C@@H](C)S(=O)(=O)NC(=O)c2ccc3c(c2)N(C[C@@H]2CC[C@H]21)C[C@@]1(CCCc2cc(Cl)ccc21)CO3", "HOP-62 NSCLC", "TGI", "6.2 µM"),
    ("CC(C(O)c1ccccc1)[N+](=O)[O-] (stereo not given)", "HOP-62 NSCLC", "TGI", "> 100 µM"),
    ("CCN1CCN(c2nc(C)cc(N(CCCNc3ccnc4cc(Cl)ccc34)Cc3ccco3)n2)CC1", "HOP-62 NSCLC", "TGI", "14.1 µM"),
    ("COc1ccc(NCc2c(O)ccc3ccccc23)cc1", "HOP-62 NSCLC", "TGI", "> 100 µM"),
    ("[N-]=[N+]=NC(c1cn(C2CC(O)C(CO)O2)c(=O)[nH]c1=O)C(I)I (stereo not given)", "HOP-62 NSCLC", "TGI", "> 100 µM"),
    ("c1cc(C2N3CCCN2CC3)ccn1 (stereo not given)", "HOP-62 NSCLC", "TGI", "> 100 µM"),
    ("C/C(CC(=O)Nc1ccc(NC(=O)/C(C)=N/NS(=O)(=O)c2ccc(C)cc2)cc1)=N\\NS(=O)(=O)c1ccc(C)cc1", "HOP-62 NSCLC", "TGI", "> 100 µM"),
    ("CCc1c(-c2coc(CC/C(C)=C/c3ccccc3)n2)oc(OC)c(C)c1=O", "HOP-62 NSCLC", "TGI", "> 100 µM"),
    ("CCC(C)N1CN(c2ccccc2)C2(CCN(CCCC(=O)c3ccc(F)cc3)CC2)C1=O (stereo not given)", "HOP-62 NSCLC", "TGI", "4.51 µM"),
    ("CN(C)S(=O)(=O)c1cccc(-c2nc3sc4c(c3c(=O)[nH]2)CCCC4)c1", "HOP-62 NSCLC", "TGI", "> 100 µM"),
    ("COC(=O)C1=C2Nc3ccccc3C23CCN2C(O)C4(CC5CC67CCOC6CCN6CCC8(c9cccc(OC)c9N(C4)C58O)C67)C4OCCC4(C1)C23 (stereo not given)", "HOP-62 NSCLC", "TGI", "> 100 µM"),
    ("COc1ccc(CC(C#N)c2cc(OC)c(OC)c(OC)c2)cc1 (stereo not given)", "HOP-62 NSCLC", "TGI", "> 100 µM"),
    ("COc1cc(C2c3cc4c(cc3OC(N3CCOCC3)C2C)OCO4)cc(OC)c1OC (stereo not given)", "HOP-62 NSCLC", "TGI", "52.8 µM"),
]
